Test system: SN12C renal
ASSAY METHOD TEXT: NCI-60 one-dose screen, 48 h
CONDITIONS USED: 10 µM unless noted
Method: Growth inhibition of the SN12C human tumor cell line is measured as a screen for anti-cancer activity. Cells are grown in 96 well plates and exposed to the test compound for 48 hours. Compounds are tested at a single concentration, which is 10^-5 M for most compounds. The reported endpoint is percent growth (GI% or GIPRCNT), where numbers from 0 - 100% represent growth inhibition, and numbers from -100% - 0 represent cell death. For example, a value of 40 represents 60% growth inhibition. […]
The panel holds about 83,000 compounds, 20% with a hit somewhere; the sample as a whole holds those more often. Calls of active or inactive are those of the source. The calls were made as follows: active = growth percent below 10; inactive = the rest.
// allowed return values: YES = active, NO = inactive

MOLECULE	CLASSIFICATION
Cc1cccc(NC(=O)Nc2ccc(-c3ccc4c(c3)NC(=O)/C4=C\c3ccc[nH]3)cc2)c1	NO
CCSCC1CC(O)(c2ccccc2)CC(c2ccc(F)cc2)O1 (centres undefined)	YES
OCc1cnccc1NCCCCOc1ccc(Oc2ccccc2)cc1	NO
CC(C)(C)[Si](C)(C)OC1[C@@H](O[Si](C)(C)C(C)(C)C)[C@@H](CNC(=O)NC(=O)CCl)O[C@H]1n1cnc2c(NC(=O)Nc3ccccc3)ncnc21 (some centres undefined)	YES
COc1ccc(C(=O)c2nc3ccccc3n2CC(=O)c2ccc(F)cc2)cc1	NO
O=C(O)c1ccc(NCc2cn(-c3ccc(C(F)(F)F)cc3)nc2-c2ccc(C(=O)O)cc2)cc1	NO
CCN(CC)CCn1c(=O)c2cc(OC)c(OC)cc2c2ccc3cc4c(cc3c21)OCO4	NO
Cc1nc2ccc(Cl)cn2c1-c1nnc(SCc2ccc([N+](=O)[O-])cc2)o1	NO

Hi, sorry to bother you, what did the test record for CC(c1ccccc1)C(C(=O)c1ccccc1)c1ccccc1 (centres undefined) ?
NO
